# System: NCI-H522
# test-method-notes: NCI tumour cell line growth inhibition, 48 h
Active and inactive are the calls of the source. No stated cut-off is given here; in the data, active = GI50 up to about 1.1 µM and inactive = higher.
Your answer must be one of the following: t (active), f (inactive)

## Task Query: recorded result category for CC1(CC(=O)OC(C#C[Si](C)(C)C)Cc2ccccc2)OCCO1 (configuration not stated) in this test
## Result f

## Task Same lookup for O=P(O)(O)C(N=C(Nc1ccccc1)Nc1ccccc1)P(=O)(O)O , please.
## Result f

## Task Same thing, different compound: O=[N+]([O-])C(=C(N1CCCCC1)N1CCCCC1)/C(Cl)=C(\Cl)[N+](=O)[O-]
## Result f

## Task Request: COc1ccccc1/C=C1\CCC(Cc2ccccc2)(CN(C)C)C1=O (configuration not stated)
## Result t

## Task Also CCN(CC)CCOc1ccc(C(=C2CCCCC2)c2ccc(OCCN(CC)CC)cc2)cc1 ?
## Result f

## Task Here is the next compound: CCCCCCCCCCCCCCCCCCOCC(O)COP(=O)(O)OCC1OC(n2ccc(N)nc2=O)C(O)C1O (configuration not stated)
## Result f

## Task What about this compound? CC(=O)Nc1ccc2c(c1)C(=O)c1cccc(F)c1-2
## Result f

###

# Test system: U-251
# test-method-notes: NCI tumour cell line growth inhibition, 48 h
Calls of active or inactive are those of the source. Rule as the data show it: active = GI50 up to about 1.1 µM and inactive = higher.
property-measured: GI50

Observe how each entry below is paired with its result.
molecule | property-measured | test-result
Cn1c(=O)c2c(nc(NCCNc3nc4c(c(=O)n(C)c(=O)n4C)n3C)n2C)n(C)c1=O | GI50 | > 100 µM (inactive)
CN(C)c1ccc(/N=N/c2ccncc2)cc1 | GI50 | > 100 µM (inactive)
CC(=O)N1c2ccccc2C2=NN(C)C(=N)SC21 (stereo not given) | GI50 | > 100 µM (inactive)
O=C1c2ccccc2C(=O)c2sc(Nc3ccc(Cl)c(Cl)c3)nc21 | GI50 | 2.43 µM (inactive)
O=C1OC(c2ccc([N+](=O)[O-])cc2)=N/C1=C\c1ccc(O)cc1 | GI50 | > 100 µM (inactive)

## Task Hi! What's the reported GI50 for CC1C(=O)C(C)C(c2ccco2)N(N=O)C1c1ccco1 (stereo not given) on U-251?
## Result > 100 µM (inactive)

## Task Another molecule to check: Cc1nnc(N)nc1/C=C\c1ccc(Cl)cc1Cl
## Result 34.8 µM (inactive)

## Task Another molecule to check: CC(=O)Oc1ccc2c(c1)Oc1cc(C(C)=O)ccc1C21OC(=O)c2ccccc21 (stereo not given)
## Result > 100 µM (inactive)

## Task // same read-out, input: O=c1[nH]cnc(NC2C=C(CO)C(O)C2O)c1[N+](=O)[O-] (stereo not given)
## Result > 63.5 µM (inactive)

## Task Then this molecule: CN(/N=C/c1cccc2cccnc12)c1c([N+](=O)[O-])cc([N+](=O)[O-])cc1[N+](=O)[O-]
## Result > 100 µM (inactive)

###

# Tested on: EKVX
# test-method-notes: NCI tumour cell line growth inhibition, 48 h
Active and inactive are the calls of the source. Cut-off read from the data, not from the text of the source: active = GI50 up to about 1.1 µM and inactive = higher.
# maps each entry to its GI50

Answered cases to consult:
molecule | GI50
Cc1c(/C=N/NC(=O)c2ccc(Cl)cc2)c(=O)n(-c2ccccc2)n1C | > 100 µM (inactive)
CC(Sc1ccccc1)C(CO)(CO)[N+](=O)[O-] (stereo not given) | 18.2 µM (inactive)
COC(=O)[C@]1(c2cc3ccccc3[nH]2)CC2CN(C(=O)OCc3ccccc3)C1CC2=O (stereo not given in full) | 17.1 µM (inactive)

## Task What does the record list as GI50 for CSC1=C(C#N)C(=S)N=C(N)C1C(=O)Nc1ccc(C)cc1 (stereo not given) ?
## Result > 100 µM (inactive)

## Task Quick one: CCNc1nnc(-c2ccccc2Nc2ccccc2-c2nnc(NCC)s2)s1
## Result 20.9 µM (inactive)

###

# Test system: SK-OV-3
# test-method-notes: NCI tumour cell line growth inhibition, 48 h
Activity calls are given as the source filed them. Rule as the data show it: active = GI50 up to about 1.1 µM and inactive = higher.
Outcomes you can answer with include only these: Yes = active, No = inactive

For orientation, consider the following solved cases.
compound | group
O=C1OC2(c3ccccc3Oc3ccccc32)c2ccccc21 | No
COc1cc(/C=C/C(=O)Oc2ccccc2)ccc1C(=O)O/C=C/c1ccccc1 | No
COc1cc2c(cc1OC)C(C(=O)O)C(c1ccccc1)N(C)C2=O (stereo unspecified) | No
C[C@]12[C@@H]3CC[C@H]1[C@@H](OC(=O)Nc1cc([N+](=O)[O-])cc([N+](=O)[O-])c1)C(=O)N2CC3 | No
Cn1cc(NC(=O)c2cc(NC(=O)CNC(=N)N)cn2C)cc1C(=O)NCCC(=N)N [NETROPSIN CHLORIDE] | No
CC1=C[C@@H](C)C[C@]2(C)CC[C@H](O2)[C@]23CC[C@](CO)(C[C@H](O2)[C@@H]2O[C@@](C)(CC2=O)[C@@H](O)[C@H]2CC[C@@]4(CCC[C@@H](O4)[C@H](C)C(=O)O[C@H]4C[C@H]([C@]5(O)OCC[C@H](C)[C@@H]5O)O[C@H]4C=C1)O2)O3 | Yes
CC(C)c1ccc(/C=C2\CSCC3=C2N=C2SCC(=O)N2C3c2ccc(C(C)C)cc2)cc1 (stereo unspecified) | No
CC(C)(C)c1cc(-c2c3nc(c(-c4cc(C(C)(C)C)cc(C(C)(C)C)c4)c4ccc([nH]4)c(-c4cc(C(C)(C)C)cc(C(C)(C)C)c4)c4nc(c(-c5cc(C(C)(C)C)cc(C(C)(C)C)c5)c5ccc2[nH]5)C=C4)C=C3)cc(C(C)(C)C)c1 | No
CSc1nc2c(c(O)c(C)c(=O)n2C2OC(COC(C)=O)C(OC(C)=O)C(OC(C)=O)C2OC(C)=O)c(=O)n1C (stereo unspecified) | No
O=C(Nc1ccc(Cl)cc1)NS(=O)(=O)c1ccc2c(c1)CCC2 | No

## Task Outcome logged for CN(C)c1ccc(Cc2cc(C(C)(C)C)cc(C(C)(C)C)c2O)cc1 in this assay:
## Result No

## Task // repeat for O=C1C2C(C(=O)N1c1ccccc1)C1(c3ccccc3)CCC2(C(=O)c2ccccc2)O1 (stereo unspecified) and report
## Result No

## Task Next compound up: COc1cc2cc(C(=O)N3CC(COS(C)(=O)=O)c4c3cc([N+](=O)[O-])c3ccccc43)[nH]c2c(OC)c1OC (stereo unspecified)
## Result No

## Task Please answer likewise for CN(C)S(=O)(=O)n1ccnc1
## Result No

## Task What do you have for Nc1cccc(/C=C/C(=O)N2CCN(CCOC(c3ccccc3)c3ccccc3)CC2)c1 ?
## Result No

## Task Now consider CC(=O)c1c(-c2ccco2)c(C#N)c(=S)n(C2OC(CO)C(O)C(O)C2O)c1-c1ccccc1 (stereo unspecified) and answer again.
## Result No

###

# Tested on: HCC 2998
# test-method-notes: NCI tumour cell line growth inhibition, 48 h
Calls of active or inactive are those of the source. Cut-off read from the data, not from the text of the source: active = GI50 up to about 1.1 µM and inactive = higher. Peptide text beside a SMILES is read from it. * marks the point of attachment. OSu = O=C1CCC(=O)N1O*
property-measured: GI50

Example entries and their recorded answers appear below.
molecule | test-result
NCCCCC(NC(=O)C(N)Cc1ccc(O)cc1)C(=O)NC(Cc1ccc(O)cc1)C(=O)NC(CCCCN)C(=O)ON1C(=O)CCC1=O (centres undefined) (H-YKYK-OSu; configuration not given here) | > 100 µM (inactive)
COC(=O)c1cc2c(nc1C)-c1ccccc1OS2(=O)=O | > 100 µM (inactive)
O=C1CCC(=O)C1=NNc1ccccc1 | > 100 µM (inactive)

## Task Param readout = GI50; param system = HCC 2998; param query = C=C(C)[C@H](O)C(O)CC(C)[C@@H]1CCC23CC12CCC1[C@@]2(C)CCC(OC(C)=O)C(C)(C)C2CC(OC2OC(COC(C)=O)C(O)C(O)C2O)[C@]13C (some centres undefined) ; response: value
## Result 6.35 µM (inactive)

## Task How about C=C1CC23CCC4C(C)(C(=O)O)CCCC4(C)C2CCC1C3 (centres undefined) ?
## Result 17.1 µM (inactive)

## Task // same read-out, input: O=C(/C=C/c1ccc(O)c(O)c1)c1ccc(O)cc1O
## Result 17.1 µM (inactive)

## Task Then this molecule: C=C1C(=O)O[C@@H]2[C@H]1CCC(C)=C1C=CC(=O)[C@]12C
## Result 13.2 µM (inactive)

## Task Same lookup for CC(C)(C)[Si](C)(C)Oc1cc(CO)cc2c1cc(=N)o[n+]2[O-] , please.
## Result 9.35 µM (inactive)

## Task Moving on to c1ccc([P+](c2ccccc2)(c2ccccc2)c2ccc([P+](c3ccccc3)(c3ccccc3)c3ccccc3)c3ccccc23)cc1
## Result 49.2 µM (inactive)

## Task Another molecule: COC(=O)[C@H]1[C@@H](C(C)C)O[C@@H](C(C)C)O[C@H]1C(F)(F)F
## Result > 100 µM (inactive)

## Task And what about the molecule CC(C)c1ccc(/C=C2\CSCC3=C2N=C2SCC(=O)N2C3c2ccc(C(C)C)cc2)cc1 (centres undefined) ?
## Result > 100 µM (inactive)

## Task And the next one, C=C(C)CNC(=S)N(N)c1ccc2ccccc2c1 ?
## Result 47.3 µM (inactive)

## Task What do you get for CC(C)C(=O)Nc1nc2[nH]cnc2c(=O)[nH]1 ?
## Result > 100 µM (inactive)

## Task Another molecule to look at: Nn1c(CCCCCCCCc2nnc(COc3ccccc3)n2N)nnc1COc1ccccc1
## Result > 100 µM (inactive)
